Listing of recorded IC50 by entry.
- TARGET: Neuropeptide S receptor (Homo sapiens)
- Sequence (Q6W5P4 whole entry): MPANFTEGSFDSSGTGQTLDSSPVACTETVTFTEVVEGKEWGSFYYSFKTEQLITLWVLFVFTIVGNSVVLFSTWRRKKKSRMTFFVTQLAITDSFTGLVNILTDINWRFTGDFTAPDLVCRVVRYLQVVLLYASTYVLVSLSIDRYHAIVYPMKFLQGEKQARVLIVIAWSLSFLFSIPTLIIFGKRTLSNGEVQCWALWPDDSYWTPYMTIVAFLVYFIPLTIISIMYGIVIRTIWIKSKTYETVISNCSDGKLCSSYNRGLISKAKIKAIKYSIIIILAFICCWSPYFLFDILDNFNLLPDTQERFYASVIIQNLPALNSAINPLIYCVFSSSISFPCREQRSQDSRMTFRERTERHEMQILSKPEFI
- EXPERIMENTAL PROTOCOL: Antagonist activity at neuropeptide S receptor (unknown origin) expressed in CHO cells assessed as cAMP level after 30 mins by […] assay
- Type: functional, cell-based
- SETTINGS: read-out: IC50
Numbers only; they are read as µM.

Completed entries (count: 4):
>>> recorded_result("Cc1c(P(=S)(c2ccccc2)c2ccccc2)n2ccccc2[n+]1C/C=C/c1cccc(Cl)c1")
0.22
>>> recorded_result("Cc1c(P(=S)(c2ccccc2)c2ccccc2)n2ccccc2[n+]1CCCc1ccccc1")
0.11
>>> recorded_result("Cc1nc2ccccn2c1P(=S)(c1ccccc1)c1ccccc1")
18
>>> recorded_result("Cc1c(P(=S)(c2ccccc2)c2ccccc2)n2ccccc2[n+]1C/C=C/c1cccc(Br)c1")
0.67

Now take the following molecule into account.
Sure, the documented IC50 for CCC(C)(CCN1CCOCC1)N(Cc1cc2ccccc2n(C)c1=O)C(=O)C1CCCCC1 (stereo not given) is 0.0012

----------
- EXPERIMENTAL PROTOCOL: Drug level in mouse brain after 2 hrs
- Assay type: ADME, tissue-based
- SETTINGS: read-out: Drug uptake
EXPERIMENTAL READOUT: concentration at 2 h (nM)
Dear colleague, please return just the value in nM, with no unit written.

Reported concentration at 2 h of O=C(NCc1ccc(F)cc1)N1CCN2C(=O)OC(c3ccccc3)(c3ccccc3)C2C1 (stereo unspecified) : 2000

----------
- EXPERIMENTAL PROTOCOL: Plasma concentration in mouse at 10 mg/kg, ip after 2 hrs
- Type: ADME, organism-based
- Set-up: dose 10 mg/kg, route intraperitoneal
EXPERIMENTAL READOUT: concentration at 2 h (nM)
Please give a number only; it is taken to be in nM.

In plain terms, Cc1c(P(=S)(c2ccccc2)c2ccccc2)n2ccccc2[n+]1C/C=C/c1ccccc1.[Br-] has a documented concentration at 2 h of 386

----------
- TARGET: UniProt Q6W5P4
- EXPERIMENTAL PROTOCOL: Antagonist activity at neuropeptide S receptor (unknown origin) expressed in CHO cells assessed as inhibition of NPS-induced ERK activation after 20 mins by HTRF assay
- Type: cell-based
EXPERIMENTAL READOUT: IC50 (nM)
Unit nM implied. Number only.

Please review the entries below; each comes with its answer.
>>> recorded_result("Cc1nc2ccccn2c1P(=S)(c1ccccc1)c1ccccc1")
9.1
>>> recorded_result("Cc1c(P(=S)(c2ccccc2)c2ccccc2)n2ccccc2[n+]1CCCCCc1ccccc1")
6.2
>>> recorded_result("Cc1c(P(=S)(c2ccccc2)c2ccccc2)n2ccccc2[n+]1CCCCc1ccccc1")
15
>>> recorded_result("CCC(C)(CCN1CCOCC1)N(Cc1cc2ccccc2n(C)c1=O)C(=O)C1CCCCC1 (configuration not stated)")
11
>>> recorded_result("O=C(NCc1ccc(F)cc1)N1CCN2C(=O)OC(c3ccccc3)(c3ccccc3)C2C1 (configuration not stated)")
14

Given item Cc1c(P(=S)(c2ccccc2)c2ccccc2)n2ccccc2[n+]1Cc1ccccc1 , the value recorded as its IC50 is 16

Lookup result for Cc1c(P(=S)(c2ccccc2)c2ccccc2)n2ccccc2[n+]1CCc1ccccc1 ; measured IC50: 16

The reported numbers originate from ChEMBL document CHEMBL3085664.
